Molecular target: Jak2 (a.a. 828-1132) (Homo sapiens, UniProt O60674)
Construct: Jak2 (a.a. 828-1132); His tag (N); made in house; host or cells: insect cells (baculovirus)
Sequence (O60674 828-1132): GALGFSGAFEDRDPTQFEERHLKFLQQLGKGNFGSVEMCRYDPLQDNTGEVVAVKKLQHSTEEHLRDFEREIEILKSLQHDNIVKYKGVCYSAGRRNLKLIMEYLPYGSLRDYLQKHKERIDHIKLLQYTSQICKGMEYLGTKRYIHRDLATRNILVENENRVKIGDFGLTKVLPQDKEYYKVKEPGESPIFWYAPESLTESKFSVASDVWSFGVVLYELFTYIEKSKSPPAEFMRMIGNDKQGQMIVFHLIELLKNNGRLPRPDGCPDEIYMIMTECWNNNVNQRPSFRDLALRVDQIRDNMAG
Test: In vitro JAK kinase assay (HTRF, phosphorylation of biotinylated peptide), JAK2
Type: biochemical
Conditions: 1 mM ATP; Examples 12-91; read-out: JAK2 IC50 (nM) @ 1 mM ATP
Where a name gives a salt, the structure may show the parent alone.
measured-property: IC50

// map N#CCC(CN1CCN(C(=O)c2cc(OC(F)(F)F)ccc2F)CC1)n1cc(-c2ncnc3[nH]ccc23)cn1 (stereo not drawn) [Example 41] to recorded IC50 (system: Jak2 (a.a. 828-1132) (Homo sapiens, UniProt O60674))
10 to 50 nM

What about N#CCC(CN1CCN(C(=O)c2ccc(C(F)F)cc2F)CC1)n1ccc(-c2ncnc3[nH]ccc23)c1 (stereo not drawn) [Example 91] ?
10 to 50 nM

What about N#CCC(CN1CCN(C(=O)c2ccc(F)c(OC(F)(F)F)c2)CC1)n1ccc(-c2ncnc3[nH]ccc23)c1 (stereo not drawn) [Example 85] ?
> 100 nM

What about N#CCC(CN1CCN(S(=O)(=O)c2ccc(Cl)s2)CC1)n1cc(-c2ncnc3[nH]ccc23)cn1 (stereo not drawn) [Example 68] ?
< 10 nM

What about N#CCC(CN1CCN(C(=O)c2ccc(O)c(Cl)c2)CC1)n1cc(-c2ncnc3[nH]ccc23)cn1 (stereo not drawn) [Example 54, trifluoroacetate salt] ?
50 to 100 nM

What about N#CCC(CN1CCN(S(=O)(=O)c2ccc3[nH]ncc3c2)CC1)n1cc(-c2ncnc3[nH]ccc23)cn1 (stereo not drawn) [Example 22] ?
< 10 nM
